Tested on: HSP70b mRNA
protocol: Cellular expression of HSP-70 mRNA in Hela cells (real-time PCR)
Format: cell-based
condition_info: fold induction of HSP-70b mRNA relative to the vehicle treated control; 4 hours; normalized to 18S rRNA
measured_property: HSP Induction in Hela cells

A selection of reference data follows.
{"compound": "CC1(C)CN(C(=O)Oc2ccccc2)CC(=Cc2cccc(N3CCCCC3)n2)C1=O", "HSP Induction in Hela cells": "(++++) (>1536 fold)"}
{"compound": "CC1(C)CN(Cc2ccccc2)C(c2ccccn2)C(=Cc2cccc(N3CCOCC3)n2)C1=O (stereo not drawn)", "HSP Induction in Hela cells": "(++++) (>1536 fold)"}
{"compound": "COc1ccc(CC2N(C(=O)OCC(C)C)CC(=Cc3ccccn3)C(=O)C2(C)C)cc1 (stereo not drawn)", "HSP Induction in Hela cells": "(++++) (>1536 fold)"}
{"compound": "CC1(C)CN(Cc2ccccc2)C(c2ccccn2)C(=Cc2ccccn2)C1=O (stereo not drawn)", "HSP Induction in Hela cells": "(+++) (193-1536 fold)"}

Ask: Using known records, supply HSP Induction in Hela cells for CC1(C)CN(C(=O)Oc2ccccc2)CC(=Cc2cccc(N3CCOCC3)n2)C1=O
Reply: (++++) (>1536 fold)

Ask: Consider the compound CC1(C)CN(Cc2ccccc2)CC(=Cc2nc3ccccc3c(=O)[nH]2)C1=O and give its recorded HSP Induction in Hela cells.
Reply: (++++) (>1536 fold)

Ask: For the compound CCOC(=O)N1CC(=Cc2ccccn2)C(=O)C(C)(C)C1Cc1ccc(OC)cc1 (stereo not drawn) , report HSP Induction in Hela cells.
Reply: (+++) (193-1536 fold)

Ask: Indicate the recorded HSP Induction in Hela cells value for this compound: COc1ccc(CC2N(C(=O)Oc3ccccc3)CC(=Cc3ccccn3)C(=O)C2(C)C)cc1 (stereo not drawn)
Reply: (+++) (193-1536 fold)

###

Tested on: TNF-α mRNA
protocol: Inhibition of LPS-induced TNF-α expression in PMA differentiated THP-1 cells
Format: cell-based, Human
condition_info: LPS (1 ug/ml) and compound for 4 hours, LPS alone as 100%
measured_property: TNF-alpha Inhibition

Consider the worked cases shown below.
{"molecule": "CSc1ccc(C2C(=Cc3ccccn3)C(=O)C(C)(C)CN2Cc2ccccc2)cc1 (centres unmarked)", "TNF-alpha Inhibition": "(++) (41-60%)"}
{"molecule": "COc1cc(C2C(=Cc3ccccn3)C(=O)C(C)(C)CN2Cc2ccco2)cc(OC)c1OC (centres unmarked)", "TNF-alpha Inhibition": "(++) (41-60%)"}
{"molecule": "CC1(C)CN(Cc2ccccc2)CC(=Cc2cccc(N3CCOCC3)n2)C1=O", "TNF-alpha Inhibition": "(++) (41-60%)"}
{"molecule": "COc1ccc(CN2CC(C)(C)C(=O)C(=Cc3ccccn3)C2c2ccccc2)cc1 (centres unmarked)", "TNF-alpha Inhibition": "(+++) (61-80%)"}

Ask: Specify TNF-alpha Inhibition for CC1(C)CN(C(=O)OCc2ccccc2)CC(=Cc2ccccn2)C1=O and stop.
Reply: (+++) (61-80%)

Ask: Output measured TNF-alpha Inhibition for this item: CSc1ccc(C2/C(=C\c3cccc(N4CCOCC4)n3)C(=O)C(C)(C)CN2Cc2ccccc2)cc1 (centres unmarked)
Reply: (++) (41-60%)

Ask: Determine its reported TNF-alpha Inhibition: CC1(C)CN(CCc2cccs2)CC(=Cc2cccc(N3CCOCC3)n2)C1=O
Reply: (+++) (61-80%)

###

System: HSP70b mRNA
protocol: Cellular expression of HSP-70 mRNA in Hela cells (real-time PCR)
Type: cell-based
condition_info: fold induction of HSP-70b mRNA relative to the vehicle treated control; 4 hours; normalized to 18S rRNA
measured_property: HSP Induction in Hela cells

Completed entries (count: 5):
{"compound": "COc1ccc(CC2N(C(=O)C(C)(C)C)CC(=Cc3ccccn3)C(=O)C2(C)C)cc1 (centres unmarked) [Compound 16]", "system_name": "HSP70b mRNA", "HSP Induction in Hela cells": "(++++) (>1536 fold)"}
{"compound": "CC1(C)CN(Cc2ccccc2)C(c2ccccc2)C(=Cc2ccccn2)C1=O (centres unmarked) [Compound 25]", "system_name": "HSP70b mRNA", "HSP Induction in Hela cells": "(++++) (>1536 fold)"}
{"compound": "COc1ccc(CC2N(C(=O)Nc3c(C)cccc3C)CC(=Cc3ccccn3)C(=O)C2(C)C)cc1 (centres unmarked) [Compound 17]", "system_name": "HSP70b mRNA", "HSP Induction in Hela cells": "(++) (25-192 fold)"}
{"compound": "CC1(C)CN(Cc2ccccc2)CC(=Cc2cccc(N3CCOCC3)n2)C1=O [Compound 20]", "system_name": "HSP70b mRNA", "HSP Induction in Hela cells": "(+++) (193-1536 fold)"}
{"compound": "CC1(C)CN(Cc2ccccc2)CC(=Cc2cccc(N3CCCCC3)n2)C1=O [Compound 23]", "system_name": "HSP70b mRNA", "HSP Induction in Hela cells": "(+++) (193-1536 fold)"}

Ask: Please indicate recorded HSP Induction in Hela cells of CC1(C)CN(Cc2ccccc2)C(c2cccs2)C(=Cc2cccc(N3CCOCC3)n2)C1=O (centres unmarked) [Compound 33] measured with HSP70b mRNA.
Reply: (+++) (193-1536 fold)

Ask: # assay system HSP70b mRNA: give HSP Induction in Hela cells of CC1(C)CN(Cc2ccccc2)C(c2ccccn2)C(=Cc2cccc(N3CCCCC3)n2)C1=O (centres unmarked) [Compound 34]
Reply: (++) (25-192 fold)

###

System: TNF-α mRNA
protocol: Inhibition of LPS-induced TNF-α expression in PMA differentiated THP-1 cells
Format: cell-based, Human
condition_info: LPS (1 ug/ml) and compound for 4 hours, LPS alone as 100%
measured_property: TNF-alpha Inhibition

{"compound": "CC1(C)CN(Cc2ccccc2)C(c2ccc(S(C)(=O)=O)cc2)C(=Cc2ccccn2)C1=O (stereo not shown)", "system_name": "TNF-α mRNA", "measurement": "(++++) (>80%)"}
{"compound": "COC(=O)N1CC(=Cc2ccccn2)C(=O)C(C)(C)C1Cc1ccc(OC)cc1 (stereo not shown)", "system_name": "TNF-α mRNA", "measurement": "(++++) (>80%)"}
{"compound": "CC1(C)CN(Cc2ccccc2)CC(=Cc2ccccn2)C1=O", "system_name": "TNF-α mRNA", "measurement": "(++++) (>80%)"}

###

System: TNF-α mRNA
protocol: Inhibition of LPS-induced TNF-α expression in PMA differentiated THP-1 cells
Type: cell-based, Human
condition_info: LPS (1 ug/ml) and compound for 4 hours, LPS alone as 100%
measured_property: TNF-alpha Inhibition

{"compound": "CC1(C)CN(Cc2ccccc2)C(c2ccc(S(C)(=O)=O)cc2)C(=Cc2cccc(N3CCOCC3)n2)C1=O (centres unmarked)", "TNF-alpha Inhibition": "(++++) (>80%)"}
{"compound": "O=C1C(=Cc2cccc(N3CCOCC3)n2)C(=O)N(Cc2ccccc2)CC1c1ccccc1 (centres unmarked)", "TNF-alpha Inhibition": "(+) (21-40%)"}
{"compound": "CC1(C)CN(Cc2ccccc2)CC(=Cc2ccc(C(=O)N3CCOCC3)cc2)C1=O", "TNF-alpha Inhibition": "(+++) (61-80%)"}
{"compound": "CC1(C)CN(Cc2ccccc2)C(c2ccc(C(F)(F)F)cc2)C(=Cc2cccc(N3CCOCC3)n2)C1=O (centres unmarked)", "TNF-alpha Inhibition": "(++) (41-60%)"}
{"compound": "COc1ccc(CC2N(C(=O)C(C)(C)C)CC(=Cc3ccccn3)C(=O)C2(C)C)cc1 (centres unmarked)", "TNF-alpha Inhibition": "(++++) (>80%)"}

Ask: Using known records, supply TNF-alpha Inhibition for CC1(C)C(=O)C(=Cc2ccccn2)CN(C(=S)Nc2ccccc2)C1c1ccc(S(C)(=O)=O)cc1 (centres unmarked)
Reply: (++) (41-60%)

Ask: Output measured TNF-alpha Inhibition for this item: Cc1cc(N2CC(C)(C)C(=O)C(=Cc3cccc(N4CCOCC4)n3)C2c2ccccc2)no1 (centres unmarked)
Reply: (+++) (61-80%)

Ask: Please indicate TNF-alpha Inhibition recorded for CC1(C)CN(CCc2cccs2)CC(=Cc2ccccn2)C1=O
Reply: (++++) (>80%)

Ask: Return TNF-alpha Inhibition for the following compound: COc1ccc(OC)c(C2C(=Cc3cccc(N4CCN(C)CC4)n3)C(=O)C(C)(C)CN2Cc2ccc(C)cc2)c1 (centres unmarked)
Reply: (+++) (61-80%)

Ask: State its TNF-alpha Inhibition for this compound: CC1(C)CN(Cc2ccco2)C(c2ccccc2)C(=Cc2ccccn2)C1=O (centres unmarked)
Reply: (++++) (>80%)

Ask: Given the compound COc1ccc(CN2CC(C)(C)C(=O)C(=Cc3cccc(N4CCOCC4)n3)C2c2ccc(C(F)(F)F)cc2)cc1 (centres unmarked) , write its reported TNF-alpha Inhibition.
Reply: (++) (41-60%)

Ask: Supply measured TNF-alpha Inhibition of COc1ccc(CC2N(C(=S)Nc3ccccc3)CC(=Cc3ccccn3)C(=O)C2(C)C)cc1 (centres unmarked) in your reply.
Reply: (+++) (61-80%)

Ask: Quote TNF-alpha Inhibition reported for CN1CC(C)(C)C(=O)C(=Cc2ccccn2)C1c1ccccc1 (centres unmarked) please.
Reply: (+) (21-40%)

Ask: Please look at this compound and report its TNF-alpha Inhibition: COc1ccc(CC2N(C(=O)Nc3c(C(C)C)cccc3C(C)C)CC(=Cc3ccccn3)C(=O)C2(C)C)cc1 (centres unmarked)
Reply: (++++) (>80%)
